Target: [^3 H]GABA binding sites of brain tissue
Assay: Inhibition of [3H]GABA binding by brain homogenates
Settings: concentration causing 50% inhibition of isotope binding
Catalogue of IC50 values
Record the result as a number with its unit.

compound: c1ccc2c(c1)[nH]c1cnccc12
IC50: 335 µM

As a next step, examine the compound that follows.
Task item: So what's the measured IC50 for this one? c1ccc2c3c([nH]c2c1)CNCC3 [1,2,3,4-tetrahydro-beta-carboline]
Reply: 153 µM

###

Biological target: [^14 C]Dopamine binding sites of brain tissue
Assay: Inhibition of [14C]dopamine binding by brain homogenates
Conditions: read-out: IC50, inhibition binding, concentration causing 50% inhibition of isotope binding
Catalogue of IC50 values
Numeric answer only, unit µM assumed.

molecule: c1ccc2c3c([nH]c2c1)CNCC3 [1,2,3,4-tetrahydro-beta-carboline]
target.under.test: [^14 C]Dopamine binding sites of brain tissue
IC50, µM: 220

As a next step, examine the molecule that follows.
Task item: So what's the measured IC50 for this one? c1ccc2c(c1)[nH]c1cnccc12
Reply: 100

###

Molecular target: [^3 H]Serotonin binding sites of brain tissue
Assay: Inhibition of [3H]serotonin binding by brain homogenates
Conditions: concentration causing 50% inhibition of isotope binding
measured.metric: pIC50
Lab note — pIC50 values are minus log10 of concentrations in M.

# count of solved cases: 2
molecule: c1ccc2c3c([nH]c2c1)CNCC3 [1,2,3,4-tetrahydro-beta-carboline]
target.under.test: [^3 H]Serotonin binding sites of brain tissue
pIC50: 5.22
--
molecule: c1ccc2c(c1)[nH]c1cnccc12 [beta-carboline]
target.under.test: [^3 H]Serotonin binding sites of brain tissue
pIC50: 5.04

Task item: Give [^3 H]Serotonin binding sites of brain tissue pIC50 for COc1ccc2c(c1)[nH]c1c(C)nccc12 [7-methoxy-1-methyl-beta-carboline]
Reply: 4.57

###

Molecular target: [^3 h]Noradrenaline binding sites of brain tissue
Experiment: Inhibition of [3H]noradrenaline binding by brain homogenates
Settings: concentration causing 50% inhibition of isotope binding
measured.metric: pIC50
Lab note — pIC50 values are minus log10 of concentrations in M.

# count of solved cases: 2
molecule: c1ccc2c3c([nH]c2c1)CNCC3 [1,2,3,4-tetrahydro-beta-carboline]
target.under.test: [^3 h]Noradrenaline binding sites of brain tissue
pIC50: 4.89
//
molecule: c1ccc2c(c1)[nH]c1cnccc12
target.under.test: [^3 h]Noradrenaline binding sites of brain tissue
pIC50: 4.10

As a next step, examine the molecule that follows.
Task item: So what's the measured pIC50 for this one? COc1ccc2c(c1)[nH]c1c(C)nccc12
Reply: 3.15
